# Tested on: PXR homodimer (NR concentration 270 nM)
# Assay Summary: PBM binding z-score (relative to random genomic background probes); higher = stronger binding; sequences stand for … in GC…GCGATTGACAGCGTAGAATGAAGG
PBM binding z-score below 0.7 gives No; PBM binding z-score at or above it gives Yes.

> print(dat)
                           biosequence  class.assignment
 1  TAGCCTAGGTCATGCCGGCCAGTATAGTGTCGGC                No
 2  CATACAGGGTCAGCTCGGCCAGAGTAGGGACGGC                No
 3  GCTTGTAGATCAAGGTCAAGAAAGACTAAGCTAA                No
 4  TCGCCTAGGTCATTGGGCCAGTATAGTACGCATC                No
 5  CCTTACGGGTCACGAGGTTATAGCGCGACGAGCG                No
 6  TCTAGTTGGTCAAAGGTGACACACTCGAAATGCG                No
 7  ATCACTAGGTAAAGTTCAGTGAAAGATCGATAGA               Yes
 8  ATCGAAAGGTCGTAAGGTGAGTATACAGAAAGGC               Yes
 9  ATCTCTAGGTAAAAGATCAGTGAATCCCGAGGAT                No
10  TTACCAAGCTGAAAGGTCGTTGATGCACGCCTTG                No
11  AGAATGAGGTTATTAAGATCATGGAATTGCGGTC               Yes
12  TCATAGAGGTAAATGCTAGGTGAAAGTCCGATCT                No
13  ATCTCTAGGAAAGACTCAGTTCAGTGAAGAACGC               Yes
14  TCATATAGGTAAAAAGTGAAAGTCGGTGTGGTAA                No
15  TCTTGTAGATCAGCAGCTTAAGAAAGCTGGCCAA                No
16  TCTCGAAGGACACGAAGGTCAGAGCTTTCCAGAG                No
17  CCTAGTTGGTCAAGGTCAAACACGCTATAGGTAC               Yes
18  AGAATGAGGTTATACGTAGATCAGGGCAGAAAGT               Yes
19  GTACCAAGTTGAATAGGTCGTTGATGAGTAGGCG                No
20  CGTCAATGTTCAACTAAGGTAACGTAAAGCACGC                No
21  CAAACTCGGTCACGAAAGGTCAAAGTCGAATGAC               Yes
22  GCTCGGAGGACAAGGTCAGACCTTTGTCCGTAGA                No
23  TCAGACAGGGGAAGGTAACTCAGGTACGCAGTCG                No
24  ACTCGGAGGACAAAGGTCAGAGCGACGCCAGTGA                No
25  AGAATGAGGTTATACGTAGATCAGGAAAGAAAGT                No
26  ATCTCTAGGTACGACTCAGTTCAGTGAAGAACGC               Yes
27  TCTCAGAGGACACGAAGGTCAGAGCTTTCCAGAG               Yes
28  TGTCAAAGTCCAAAGGTAACGTAAGTATCCACAC                No
29  TCTTGTAGATCAACGGGAGGTTAAGAAAGATCGA                No
30  CGAACTAGGTCAAAACAGGACAGTGAAGGATGAT                No
31  TTACCAAGGTGAAGGTAGTTGATCCCTCTGTAGA                No
